Test system: RPMI-8226 leukemia
Experiment: NCI tumour cell line growth inhibition, 48 h
value kind: TGI

Sure, the documented TGI for CC[C@@]12C=CCN3CC[C@]4(c5cc(NC(=O)COc6cc(OCC(=O)Nc7cc8c(cc7OC)N(C)[C@H]7[C@@](O)(C(=O)OC)[C@H](OC(C)=O)[C@]9(CC)C=CCN%10CC[C@]87[C@@H]%109)cc7oc(-c8ccccc8)cc(=O)c67)c(OC)cc5N(C)[C@@H]4[C@](O)(C(=O)OC)[C@H]1OC(C)=O)[C@H]32 is > 100 µM

Input COC(=O)c1ccc2c(c1)C(=O)c1c-2n(CCCN)c(=O)c2cc(OC)c(OC)cc12 . Output TGI: 12.5 µM

Entry CCOC(=O)C1=C(Nc2ccc(Cl)c(Cl)c2)OC/C1=N\NC(=O)Cc1ccccc1 ; TGI = > 100 µM

Given item O=C(NCCCCCCO)c1cccc2cc3ccccc3nc12 , the value recorded as its TGI is 47.3 µM

Form: compound = CC(C(=O)O)c1ccc(-c2ccccc2)c(F)c1 (stereo not given) ; TGI = > 100 µM

The reported TGI of the compound NC(=O)c1csc(C2CCC(CO)O2)n1 (stereo not given) was > 100 µM

Reported TGI for Clc1ccc(-c2c(C3=NCCN3)nnn2-c2ccccc2)cc1 was > 100 µM

CSc1nsc(S/C=C\C(=O)c2ccc(C)cc2)n1 yielded TGI of > 100 µM

Item: COC(=O)/C=C1\C(=O)C=C2[C@@H]3C[C@H]4C[C@H](CC[C@@]4(C)N21)C3(C)NC(C)=O (stereo not given in full) | TGI: > 100 µM

TGI measured on CCN(CC)C1Oc2cc3c(cc2C(c2cc(OC)c(OC)c(OC)c2)C1C)OCO3 (stereo not given) = 20.2 µM

Sure, the documented TGI for CC(=O)Nc1ccc(/C=C2/NC(=S)N(/C=C3\C(=O)Oc4ccccc4C3=O)C2=O)cc1 is > 100 µM

Documented TGI of COC(=O)[C@H]1[C@H]2C[C@@H]3c4[nH]c5cc(OC)ccc5c4CCN3C[C@H]2C[C@@H](OC(=O)/C=C/c2cc(OC)c(OC)c(OC)c2)[C@@H]1OC : 85.1 µM

Form field TGI, entry CN1C(=O)C2C=CC1C1CCC2N(C)C1=O (stereo not given) : > 100 µM

Memo: CC(C)(CN1CCCCC1)C(/C=C/c1ccccc1)=N\NC(=O)N/N=C(/C=C/c1ccccc1)C(C)(C)CN1CCCCC1 , reported TGI: 3.96 µM

Notebook: COc1cc(S(=O)(=O)Nc2ccc(-c3csc(/N=C\c4ccccc4)n3)cc2)ccc1Cl , TGI read as > 100 µM

Query Cc1nc2cccc(F)c2c(=O)n1-c1nnc(C(F)(F)F)s1 yields TGI of > 10 µM

Given item COC1(OC)C=CC(=O)C=C1 , the value recorded as its TGI is 13.5 µM

Documented TGI of COC(=O)c1ccc(CN2C(=O)C(Cl)=C(Nc3ccc(OC)c(Cl)c3)C2=O)cc1 : > 50 µM

get_value(item= NC(=S)N/N=C1\CCCC1C(O)(C(F)(F)Cl)C(F)(F)Cl (stereo not given) , readout=TGI) returns > 10 µM

The compound identified as CC(C)(C)C(=O)N1CCN(C=O)C1=S registered its TGI at > 100 µM

COc1nc(C)cc2c(=O)n(-c3ccccc3)n(CC(O)CN3CCN(c4ccc(Cl)cc4)CC3)c(=O)c12 (stereo not given) has a reported TGI of > 50 µM

Per the records, this compound ( COc1ccc(/C=C\c2cc(OC)c(OC)c(OC)c2)c(NS(=O)(=O)c2ccc(Cl)cc2)c1O ) has TGI equal to 20.5 µM

Consider Cc1ccc(NC2=N/C(=C/c3ccco3)C(Cl)=N2)cc1 . Its measured TGI is > 100 µM

Form: compound = Cc1cc(=O)oc2cc(OC(=O)N(CCCl)CCCl)ccc12 ; TGI = > 100 µM

Note to self: TGI recorded for C/C=C(/C)c1cnc(CC(C)C)c(=O)[nH]1 was > 100 µM
